A collection of compounds and their measured TGI
# System: SF-539 CNS
# Test summary: NCI tumour cell line growth inhibition, 48 h

{"Compound": "N#CC(C#N)C1CN2CCC1CC2 (stereo not drawn)", "TGI": "> 100 µM"}
{"Compound": "Clc1ccc(Nc2nnc(CNc3ccc(-c4nnc(Nc5ccc(Cl)cc5)o4)cc3)o2)cc1", "TGI": "36.3 µM"}
{"Compound": "CC1=C(C(=O)NCCCN(CCO)CCO)CC(C(=O)NCCCN(CCO)CCO)=C(C)N1", "TGI": "> 100 µM"}
{"Compound": "COc1cc(C(=O)N(C(=O)N2CCCCC2)c2ccccc2)cc(OC)c1OC", "TGI": "> 100 µM"}
{"Compound": "COC1/C=C/OC2(C)Oc3c(C)c(O)c4c(O)c(c(C=NOC(c5ccccc5)c5ccccc5)c(O)c4c3C2=O)NC(=O)/C(C)=C/C=C/C(C)C(O)C(C)C(O)C(C)C(OC(C)=O)C1C (stereo not drawn)", "TGI": "1.95 µM"}
{"Compound": "C1C[S][Ge]2([S]CCS1)[S]CCSCC[S]2", "TGI": "> 100 µM"}
{"Compound": "O=C1C(=O)N(C23CC4CC(CC(C4)C2)C3)C(=S)N1c1ccccc1", "TGI": "> 100 µM"}
{"Compound": "CN1CCN(Cn2nc(-c3cc(F)c(Cl)cc3Cl)oc2=S)CC1", "TGI": "71.5 µM"}
{"Compound": "COc1cc(/C=C/C2=NN(c3cccc(S(=O)(=O)O)c3)C3(C2)SCC(=O)N3c2nc3ccccc3s2)cc(OC)c1OC (stereo not drawn)", "TGI": "> 100 µM"}
{"Compound": "COc1ccc(N2C(=O)C3C=CC(n4[nH]c(=O)n(Cc5ccccc5)c4=O)CC3C2=O)cc1 (stereo not drawn)", "TGI": "> 100 µM"}
{"Compound": "CCOC(=O)C1=C(C)N(c2ccc(Cl)cc2)C2(O)C=CC(Nc3ccc(Cl)cc3)=C3C(=O)N(c4ccccc4)C(=O)C312 (stereo not drawn)", "TGI": "18.3 µM"}
{"Compound": "COC(=O)C1Cc2c([nH]c3ccccc23)-c2[nH]c3ccccc3c2CC(NC(C)=O)C(=O)N2CCCC2C(=O)N1 (stereo not drawn)", "TGI": "> 100 µM"}
{"Compound": "COC(=O)[C@H](C)[C@@H]1CC[C@](C)(CCC2=C(C)CCCC2(C)C)OO1", "TGI": "> 25 µM"}
{"Compound": "COc1ccc(/C=C(\\C2=NC(=O)CS2)c2nc3ccccc3[nH]2)cc1", "TGI": "41.9 µM"}
{"Compound": "CN1C(=O)[C@@H]2[C@@H]3c4ccccc4N[C@@H]3c3[nH]c4ccccc4c3[C@@H]2C1=O", "TGI": "39.3 µM"}
{"Compound": "C/C(CC(=O)Nc1ccc([N+](=O)[O-])cc1)=N\\Nc1ccc([N+](=O)[O-])cc1[N+](=O)[O-]", "TGI": "> 100 µM"}
{"Compound": "O=C(O)c1c[nH]c2c(ccc3[nH]cc(C(=O)O)c(=O)c32)c1=O", "TGI": "> 100 µM"}
{"Compound": "CN(C)CCCN=c1c2ccccc2n(C)c2[nH]c(=O)n(C)c(=O)c12", "TGI": "22.4 µM"}

* * *

# Test system: OVCAR-4 ovarian
# Test summary: NCI tumour cell line growth inhibition, 48 h
Endpoint label: TGI

{"Compound": "CCSc1[nH]c(NC(=NC(C)C)NC(=O)c2ccccc2)c(C(N)=O)c1C(N)=O", "Endpoint label": "TGI", "Result": "> 10 µM"}
{"Compound": "COC(=O)CC1NC(=O)C1C(C)(OC)OC (stereo not given)", "Endpoint label": "TGI", "Result": "> 100 µM"}
{"Compound": "CN(C)C1(c2cc3ccccc3s2)CCCCC1", "Endpoint label": "TGI", "Result": "> 100 µM"}
{"Compound": "COC(=O)c1cc2c(nc1C)-c1ccccc1OS2(=O)=O", "Endpoint label": "TGI", "Result": "> 100 µM"}
{"Compound": "Cc1cc(N)c2cc(NC(=O)Nc3ccc4nc(C)cc(N)c4c3)ccc2n1", "Endpoint label": "TGI", "Result": "> 100 µM"}

* * *

# System: EKVX NSCLC
# Test summary: NCI tumour cell line growth inhibition, 48 h

{"Molecule": "Cn1c2c(c3ccccc31)CCN(CCCN1CCN(c3ccccc3)CC1)C2=O", "TGI": "77.6 µM"}
{"Molecule": "COc1cc2oc(-c3ccc(O)cc3)cc(=O)c2c(OC)c1O", "TGI": "> 100 µM"}
{"Molecule": "CCOC(=O)C(NC(=O)c1ccccc1)(Nc1ccc(S(=O)(=O)Nc2ccc(OC)nn2)cc1)C(F)(F)F (stereo not given)", "TGI": "> 100 µM"}
{"Molecule": "COc1cc(C(=O)N(C(=O)N2CCCCC2)c2ccccc2)cc(OC)c1OC", "TGI": "> 100 µM"}
{"Molecule": "N/C(=N/N=C/c1cccc(F)c1)NO", "TGI": "> 100 µM"}
{"Molecule": "COC(=O)CN(CC1O[C@@H]2OC(C)(C)O[C@@H]2C1NC(C)=O)C(=O)OCc1ccccc1 (stereo not given in full)", "TGI": "> 100 µM"}
{"Molecule": "Nc1nc(-c2ccc3ccccc3c2)cc(-c2cc(-c3ccc4ccccc4c3)nc(N)n2)n1", "TGI": "> 100 µM"}
{"Molecule": "COc1cc2nc3n(c(=O)c2cc1OC)CCCCC3", "TGI": "> 100 µM"}
{"Molecule": "Cc1csc2c(=O)n(COCc3ccccc3)c(=O)[nH]c12", "TGI": "> 100 µM"}
{"Molecule": "O=C1C=CC(=O)[C@H]2C3C=CC(C4C3C3(Cl)C(Cl)=C(Cl)[C@]4(Cl)C3(Cl)Cl)[C@@H]12 (stereo not given in full)", "TGI": "15 µM"}
{"Molecule": "CC(C)OC(=O)c1cccnc1/C=N/O", "TGI": "> 100 µM"}
{"Molecule": "NNC(=S)NN/C=C(\\C=Nc1ccccc1)[N+](=O)[O-]", "TGI": "> 100 µM"}
{"Molecule": "CCc1n[nH]c(=O)n1N=C(c1ccccc1)c1ccccc1", "TGI": "93.3 µM"}
{"Molecule": "COC1=CC(c2ccc[nH]2)=N/C1=C\\c1[nH]c(C)c(C)c1CCC(=O)OCc1ccccc1", "TGI": "1.9 µM"}
{"Molecule": "O=c1sc(-c2nc3ccccc3[nH]2)c(/N=C/c2ccccc2)n1-c1ccccc1", "TGI": "> 100 µM"}
{"Molecule": "COc1ccc(OC)c(-c2cc(=O)c3cc4c(cc3[nH]2)OCO4)c1", "TGI": "> 100 µM"}
{"Molecule": "O=[P+](O)c1cccnc1", "TGI": "> 100 µM"}
{"Molecule": "COc1cccc(/C=C2\\CCc3ccccc3C2=O)c1", "TGI": "29.3 µM"}
{"Molecule": "CS(=O)(=O)c1ccc(-c2cnc(NCc3ccco3)n3cnnc23)cc1", "TGI": "> 100 µM"}
{"Molecule": "CC(C)(N)C(=O)N[C@@H]1C(=O)N2[C@@H]1SC(C)(C)[C@@H]2C(=O)O", "TGI": "> 100 µM"}
{"Molecule": "COc1cc(CC(=O)c2cc3c(cc2-c2ccccc2)OCO3)cc(OC)c1OC", "TGI": "> 100 µM"}
{"Molecule": "CC(C)(/C=N/O)/[N+]([O-])=C/c1ccccc1", "TGI": "> 100 µM"}
{"Molecule": "COc1cc(/C=C2\\CC3C4CCC5=CC(=O)CC[C@]5(C)C4CC[C@]3(C)C2=O)ccc1OCCN1CCCCC1 (stereo not given in full)", "TGI": "21.8 µM"}
{"Molecule": "CN(C)C=Nc1c2c(nc3ccccc13)CCCC2", "TGI": "> 100 µM"}
{"Molecule": "Cc1cc2c(C)nn(Cc3ccccc3Cl)c2c(C#N)c1C", "TGI": "> 100 µM"}

* * *

# Tested on: SK-MEL-28 melanoma
# Test summary: NCI tumour cell line growth inhibition, 48 h
// reported TGI for each item listed
Endpoint label: TGI

{"Compound": "O=C1c2ccccc2C(=O)c2c(NCC3CO3)cccc21 (stereo unspecified)", "Endpoint label": "TGI", "Result": "> 63.7 µM"}
{"Compound": "O=C1C(Cl)C(c2ccc([N+](=O)[O-])cc2)N1n1cnc2ccccc2c1=O (stereo unspecified)", "Endpoint label": "TGI", "Result": "> 100 µM"}
{"Compound": "C=C(C)[C@@H]1CCC2=C(CC[C@]3(C)[C@@H]([C@@H](CCC=C(C)C)C(=O)O)[C@H](O)C[C@@]23C)[C@@]1(C)CCC(=O)O", "Endpoint label": "TGI", "Result": "> 100 µM"}
{"Compound": "COc1cc2nc3n(c(=O)c2cc1OC)CCCCC3", "Endpoint label": "TGI", "Result": "> 100 µM"}
{"Compound": "Oc1[nH]c2ccccc2c1/C=c1/ccc2c(c1)N=C(c1cc(F)cc(F)c1)N=2", "Endpoint label": "TGI", "Result": "20.2 µM"}
{"Compound": "O=C(CC(=O)N1N=C(c2ccccc2)C(N=Nc2ccccc2Cl)C1=O)Nc1ccccc1Cl (stereo unspecified)", "Endpoint label": "TGI", "Result": "> 100 µM"}
{"Compound": "COc1ccc(N2C(=O)C3C=CC(n4[nH]c(=O)n(Cc5ccccc5)c4=O)CC3C2=O)cc1 (stereo unspecified)", "Endpoint label": "TGI", "Result": "> 100 µM"}
{"Compound": "N#Cc1c(O)c(C=O)c(=O)n2c1[nH]c1ccccc12", "Endpoint label": "TGI", "Result": "> 100 µM"}
{"Compound": "O=C1C(=O)N(C23CC4CC(CC(C4)C2)C3)C(=S)N1c1ccccc1", "Endpoint label": "TGI", "Result": "> 100 µM"}
{"Compound": "CC(C)=Cc1cc(C(=O)NCCNC(=O)c2cc(C=C(C)C)nc(NC#N)n2)nc(NC#N)n1", "Endpoint label": "TGI", "Result": "> 100 µM"}
{"Compound": "CN1C(=O)[C@@H]2[C@@H]3c4ccccc4N[C@@H]3c3[nH]c4ccccc4c3[C@@H]2C1=O", "Endpoint label": "TGI", "Result": "67.9 µM"}

Ref: PubChem BioAssay (NCI)
